Study System: Anoctamin-1 (Mus musculus) (UniProt Q8BHY3)
Sequence (Q8BHY3 whole entry, looked up): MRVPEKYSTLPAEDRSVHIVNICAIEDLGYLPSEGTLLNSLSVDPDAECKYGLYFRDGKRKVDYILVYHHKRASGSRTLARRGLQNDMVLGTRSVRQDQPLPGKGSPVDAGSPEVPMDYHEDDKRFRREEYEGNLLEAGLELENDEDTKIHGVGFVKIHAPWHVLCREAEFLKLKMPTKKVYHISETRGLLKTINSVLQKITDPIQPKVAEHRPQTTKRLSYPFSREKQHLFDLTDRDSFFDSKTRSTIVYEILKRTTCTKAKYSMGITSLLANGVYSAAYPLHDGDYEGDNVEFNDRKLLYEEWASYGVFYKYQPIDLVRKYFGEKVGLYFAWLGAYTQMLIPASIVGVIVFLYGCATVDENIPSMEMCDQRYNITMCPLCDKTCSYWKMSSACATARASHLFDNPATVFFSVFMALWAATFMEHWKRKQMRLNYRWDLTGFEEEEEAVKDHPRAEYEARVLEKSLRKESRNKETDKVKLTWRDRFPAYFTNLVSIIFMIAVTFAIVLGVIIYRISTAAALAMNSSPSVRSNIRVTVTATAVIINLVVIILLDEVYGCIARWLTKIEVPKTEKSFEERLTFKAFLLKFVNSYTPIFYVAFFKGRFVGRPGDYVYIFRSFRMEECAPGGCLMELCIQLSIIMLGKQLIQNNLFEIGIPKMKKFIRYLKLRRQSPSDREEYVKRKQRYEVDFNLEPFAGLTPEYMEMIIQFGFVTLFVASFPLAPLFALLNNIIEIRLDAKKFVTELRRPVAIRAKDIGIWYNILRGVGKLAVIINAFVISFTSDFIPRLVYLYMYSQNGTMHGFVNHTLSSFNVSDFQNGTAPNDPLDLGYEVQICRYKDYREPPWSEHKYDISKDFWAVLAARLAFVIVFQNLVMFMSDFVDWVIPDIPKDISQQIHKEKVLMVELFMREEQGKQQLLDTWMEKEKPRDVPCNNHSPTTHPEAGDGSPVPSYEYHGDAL
Experimental Details: TMEM16A chloride channel inhibitors, confirmation, cell-based, re-confirmation (AID 652189)
Condition Notes: HEK293 TMEM16A/YFP-H148Q, iodide quench fluorescence, at 10 µM, ionomycin added to raise cell calcium
About 900 (39%) of roughly 2,300 compounds were called active.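 The calls were made as follows: active = mean duplicate percent inhibition, scaled so buffer wells are 0 and the reference blocker 100, over three buffer SD above buffer mean; inactive = the rest.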 A selection follows.
Log the outcome using a class from active, inactive

Take a look at these entries with their results.
> print(dat)
                                   compound                              study.system  answer.label
1  CN(c1cccc(NC(=O)c2ccc(CN3CCc4ccccc4C3)cc2)c1)S(C)(=O)=O  Anoctamin-1 (Mus musculus) (UniProt Q8BHY3)        active
2  O=C(CSCc1ccc(Cl)cc1)N1CCN(Cc2ccc3c(c2)OCO3)CC1  Anoctamin-1 (Mus musculus) (UniProt Q8BHY3)        active
3         CCCOc1ccc(Cc2c(Cl)nc(SC)nc2NC)cc1  Anoctamin-1 (Mus musculus) (UniProt Q8BHY3)        active
4  O=C(COC(=O)CCc1c[nH]c(=O)[nH]1)Nc1ccccc1Cl  Anoctamin-1 (Mus musculus) (UniProt Q8BHY3)      inactive
5      O=C(CNCCC1=CCCCC1)Nc1ccccc1N1CCCCCC1  Anoctamin-1 (Mus musculus) (UniProt Q8BHY3)        active
6  Cc1cc(C)cc(NS(=O)(=O)c2ccc(Oc3ncc(C(F)(F)F)cc3Cl)cc2)c1  Anoctamin-1 (Mus musculus) (UniProt Q8BHY3)      inactive

*Q* # lookup: test call for CC1CCN(C(=O)c2ccc(CSc3ccc(Cl)cc3)cc2)CC1
*A* active

*Q* Please share the test call associated with CCOC(=O)N1CC=C2C(C#N)=C(N)C(C#N)(C#N)[C@H](c3cccs3)[C@H]2C1 .
*A* inactive

*Q* Please share the test call associated with Cc1ccc(C)c(N2CCN(S(=O)(=O)c3ccc4c(c3)oc(=O)n4C)CC2)c1 .
*A* inactive

*Q* State the result this test recorded for Cc1ccc(NC(=O)C(C)c2cccc(C(=O)c3ccccc3)c2)cc1 (centres undefined) .
*A* active

*Q* Outcome logged for Cc1ccc(-n2ncc3c(N4CCN(c5ccc(F)cc5)CC4)ncnc32)c(C)c1 in this assay:
*A* active

*Q* What did this assay record as the result for O=C(Nc1cccc(S(=O)(=O)Nc2ccc(Cl)cc2)c1)c1ccc2c(c1)OCCO2 ?
*A* active

*Q* Called result for CC(C)CNC(=S)NNC(=O)c1nn(C)cc1Cl
*A* inactive

*Q* Dear all, I need the recorded test outcome for CCCCCc1ccc(-c2ccc(C(=O)O)cc2)nc1 , thank you.
*A* inactive

*Q* Hi team, can someone confirm the assay call for Cn1c(CN2CCOCC2)nc2cc(NC(=O)c3ccc(Cl)cc3)ccc21 ?
*A* active

*Q* Hi, do you know how COc1ccc(CCC(=O)c2ccc(OC)cc2)cc1 came out in this test?
*A* inactive

*Q* Recorded call for COc1ccc(CN(C)C(=O)CC(c2ccccc2)c2ccccc2)cc1 ?
*A* inactive

*Q* Give the logged outcome of this assay for the following compound: COc1ccc2[nH]cc(/C=C(/C#N)S(=O)(=O)c3ccccc3)c2c1
*A* active

*Q* Please indicate how the test categorized Cc1ccc2c(c1)N(CC(=O)N1CCCc3ccccc31)C(=O)C(C)O2 (centres undefined) .
*A* inactive

*Q* Entry CCc1cc2c(N3CCN(c4nnc(CC)s4)CC3)ncnc2s1 : call = ?
*A* active

*Q* Which outcome was assigned to Cc1cccc(N=Nc2c(O)[nH]c3ccc(F)cc23)c1 in this test?
*A* inactive

*Q* Hi, sorry to bother you, what did the test record for CCOC(=O)C1CCN(c2ncnc3c2oc2ccc(Br)cc23)CC1 ?
*A* active

*Q* Please state the recorded outcome for this compound: Cc1ccc(N)cc1-n1c(C)ccc1C
*A* inactive

*Q* Identify the outcome logged in this assay for the compound shown: CC1=NN(c2cccc(Cl)c2)C(=O)C12CC(C)=C(C)CS2 (centres undefined)
*A* inactive

*Q* Query: recorded result category for Cc1cc(C=O)c(C)n1-c1ccc(NC2CCCCC2)c([N+](=O)[O-])c1 in this test
*A* active

*Q* What is the recorded call for this compound in the test? CCOC(=O)c1cccc(NC(=O)CCn2nnc3ccccc32)c1
*A* inactive

*Q* Could you check what this test reported for CCOC(=O)C1=C(CN2CCc3ccccc32)NC(=O)NC1c1cccc([N+](=O)[O-])c1 (centres undefined) ?
*A* inactive

*Q* Tell me the assay call for Cc1nc(SCC(=O)N2CCc3ccccc3C2)c2c(C)c(C)sc2n1 please.
*A* inactive
